- ASSAY_DETAILS: Determination of moisture contents with KF moisture meter at different time points
- Assay type: physicochemical
- CONDITION_INFO: temperature 23° C., humidity 92.5%, 4 h
- Excerpt: For R-3-hydroxybutyric acid, potassium R-3-hydroxybutyrate, mixture of R-3-hydroxybutyric acid and potassium R-3-hydroxybutyrate, and R-3-hydroxybutyric acid·potassium R-3-hydroxybutyrate complex of Example 1, under a certain condition, KF moisture meter was used to determine the moisture contents at different time points. […]
Output 1 for moisture content (%) not less than 4%; output -1 otherwise.

Solved cases below.
>  <MOLECULE>
CC[C@H](O)CC(=O)O [S-3-hydroxypentanoic acid]

>  <ANSWER_LABEL>
1

$$$$
>  <MOLECULE>
C[C@H](O)CC(=O)O.C[C@H](O)CC(=O)[O-].C[C@H](O)CC(=O)[O-].[Ca+2]

>  <ANSWER_LABEL>
-1

$$$$
>  <MOLECULE>
C[C@H](O)CC(=O)O [S-3-hydroxybutyric acid]

>  <ANSWER_LABEL>
1

$$$$
>  <MOLECULE>
CCC(O)CC(=O)[O-].[Na+] (centres unmarked) [Sodium 3-hydroxypentanoate, sodium 3-hydroxypentanoate]

>  <ANSWER_LABEL>
1

$$$$

Attention now turns to another entry.
-- ask # bool: moisture content (%) of CCC(O)CC(=O)O (centres unmarked) [3-hydroxypentanoic acid] >= 4%
-- reply 1

---

- ASSAY_DETAILS: Determination of moisture contents with KF moisture meter at different time points
- Assay type: physicochemical
- CONDITION_INFO: temperature 23° C., humidity 92.5%, 30 min
For each record, write down the corresponding moisture content (%).
Please format your answer as a value with the unit trailing.

Worked set:
>  <COMPOUND>
CC[C@H](O)CC(=O)O [S-3-hydroxypentanoic acid]

>  <moisture content (%)>
1.03%

$$$$
>  <COMPOUND>
CC[C@@H](O)CC(=O)O.CC[C@@H](O)CC(=O)[O-].[Na+]

>  <moisture content (%)>
0.45%

$$$$
>  <COMPOUND>
CC(O)CC(=O)O.CC(O)CC(=O)[O-].CC(O)CC(=O)[O-].[Ca+2] (stereo not shown)

>  <moisture content (%)>
0.56%

$$$$
>  <COMPOUND>
CC(O)CC(=O)O.CC(O)CC(=O)[O-].[K+] (stereo not shown)

>  <moisture content (%)>
0.68%

$$$$

Field: moisture content (%). Fill in for each record below.
1. CC[C@H](O)CC(=O)O.CC[C@H](O)CC(=O)[O-].[Na+]
2. C[C@H](O)CC(=O)O.C[C@H](O)CC(=O)[O-].[K+]
3. CC[C@@H](O)CC(=O)[O-].[Na+] [Sodium R-3-hydroxypentanoate, sodium R-3-hydroxypentanoate]
4. CCC(O)CC(=O)O.CCC(O)CC(=O)[O-].[Na+] (stereo not shown)

-- reply
["0.59%", "0.72%", "0.87%", "0.51%"]

Field: moisture content (%). Fill in for each record below.
1. CC(O)CC(=O)O (stereo not shown) [3-hydroxybutyric acid]
2. C[C@@H](O)CC(=O)O [R-3-hydroxybutyric acid]

-- reply
1. 1.32%
2. 1.13%

---

- ASSAY_DETAILS: Determination of moisture contents with KF moisture meter at different time points
- Type: physicochemical
- CONDITION_INFO: temperature 23° C., humidity 92.5%, 11 h
Output 1 for moisture content (%) not less than 10%; output 0 otherwise.

>  <COMPOUND>
CCC(O)CC(=O)[O-].[Na+] (stereo not drawn) [Sodium 3-hydroxypentanoate, sodium 3-hydroxypentanoate]

>  <ANSWER_LABEL>
1

$$$$
>  <COMPOUND>
CC(O)CC(=O)[O-].[K+] (stereo not drawn) [Potassium 3-hydroxybutyrate, potassium 3-hydroxybutyrate]

>  <ANSWER_LABEL>
1

$$$$
>  <COMPOUND>
CC(O)CC(=O)O.CC(O)CC(=O)[O-].CC(O)CC(=O)[O-].[Ca+2] (stereo not drawn)

>  <ANSWER_LABEL>
0

$$$$
>  <COMPOUND>
CCC(O)CC(=O)O (stereo not drawn) [3-hydroxypentanoic acid]

>  <ANSWER_LABEL>
1

$$$$
>  <COMPOUND>
C[C@H](O)CC(=O)[O-].[K+] [Potassium S-3-hydroxybutyrate, potassium S-3-hydroxybutyrate]

>  <ANSWER_LABEL>
1

$$$$
>  <COMPOUND>
C[C@@H](O)CC(=O)O.C[C@@H](O)CC(=O)[O-].C[C@@H](O)CC(=O)[O-].[Mg+2]

>  <ANSWER_LABEL>
0

$$$$

-- ask # bool: moisture content (%) of `CC[C@H](O)CC(=O)O.CC[C@H](O)CC(=O)[O-].[Na+]` >= 10%
-- reply 0

-- ask # bool: moisture content (%) of `CC[C@@H](O)CC(=O)O.CC[C@@H](O)CC(=O)[O-].[Na+]` >= 10%
-- reply 0

Sourced from patent US20260184662A1
